Collected pIC50 values appear next to each entry.
# Target Desc: BCHE (Homo sapiens (Human))
# Sequence (P06276 29-602, species assumed): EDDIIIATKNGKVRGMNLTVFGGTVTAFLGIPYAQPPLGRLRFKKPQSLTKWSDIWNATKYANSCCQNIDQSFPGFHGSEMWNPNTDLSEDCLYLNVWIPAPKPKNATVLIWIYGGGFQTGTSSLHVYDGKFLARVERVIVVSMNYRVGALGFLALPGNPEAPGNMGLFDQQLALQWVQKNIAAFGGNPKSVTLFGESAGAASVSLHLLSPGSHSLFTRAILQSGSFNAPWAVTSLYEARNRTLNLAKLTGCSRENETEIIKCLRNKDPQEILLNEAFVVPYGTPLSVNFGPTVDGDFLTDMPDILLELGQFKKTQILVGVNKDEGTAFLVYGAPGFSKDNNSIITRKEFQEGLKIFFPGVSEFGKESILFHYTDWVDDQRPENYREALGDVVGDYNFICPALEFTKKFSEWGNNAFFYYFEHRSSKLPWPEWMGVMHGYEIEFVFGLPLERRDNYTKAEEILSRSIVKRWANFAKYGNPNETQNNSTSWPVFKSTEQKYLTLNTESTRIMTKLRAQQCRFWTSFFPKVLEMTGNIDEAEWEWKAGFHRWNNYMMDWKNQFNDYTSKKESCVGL
# Test Details: biochemical
# Type: biochemical
# Stated Conditions: enzyme incubated 2 hours with compound
pIC50: −log10 of the molar value.

Molecule: CCOP(=O)(OCC)OCCCCOP(=O)(OCC)OCC [Compound 54, Tetraethyl butane-1,4-diyl bisphosphate]
Target Desc: BCHE (Homo sapiens (Human))
pIC50: 5.09

Molecule: CCCCOP(=O)(OCCC=CCCOP(=O)(OCCCC)OCCCC)OCCCC [Compound 66]
Target Desc: BCHE (Homo sapiens (Human))
pIC50: 5.92

Molecule: CCOP(=O)(OCC)OCCCOP(=O)(OCC)OCC [Compound 53, Tetraethyl propane-1,3-diyl bisphosphate]
Target Desc: BCHE (Homo sapiens (Human))
pIC50: 5.08

Molecule: CCCCOP(=O)(OCCCC)OCCOCCOP(=O)(OCCCC)OCCCC [Compound 65]
Target Desc: BCHE (Homo sapiens (Human))
pIC50: 4.51

Molecule: CCCCOP(=O)(OCCCC)OCCCCCCCOP(=O)(OCCCC)OCCCC [Compound 63, Tetrabutyl heptane-1,7-diyl bisphosphate]
Target Desc: BCHE (Homo sapiens (Human))
pIC50: 5.40

Molecule: CCOP(=O)(OCC)OCCOCCOP(=O)(OCC)OCC [Compound 58]
Target Desc: BCHE (Homo sapiens (Human))
pIC50: 4.95

Molecule: CCCCOP(=O)(OCCCC)Oc1ccccc1Cl [Compound 9, Di-n-butyl 2-chlorophenyl phosphate]
Target Desc: BCHE (Homo sapiens (Human))
pIC50: 9.16

Molecule: CCCCOP(=O)(OCCCC)OCCCCCCCCOP(=O)(OCCCC)OCCCC [Compound 64, Tetrabutyl octane-1,8-diyl bisphosphate]
Target Desc: BCHE (Homo sapiens (Human))
pIC50: 5.62

Molecule: CCOP(=O)(OCC)OCCCCCCCOP(=O)(OCC)OCC [Compound 57, Tetraethyl heptane-1,7-diyl bisphosphate]
Target Desc: BCHE (Homo sapiens (Human))
pIC50: 4.40

Molecule: CCCCOP(=O)(OCCCC)OCCCCOP(=O)(OCCCC)OCCCC [Compound 60, Tetrabutyl butane-1,4-diyl bisphosphate]
Target Desc: BCHE (Homo sapiens (Human))
pIC50: 4.06
